Entries and their measured MIC follow.
system: Mtb YAGY; assay: microbe, parasite or virus in culture; assay type: cell-based, Mycobacterium tuberculosis; settings: Mycobacterium tuberculosis, read-out: MIC, susceptibility pattern Mtb YAGY
Numeric answer only, unit mg/L assumed.

As a guide, the following entries are already answered.
INSERT INTO results (compound, quantitative_result) VALUES
  ('CC[C@@H](CO)NCCN[C@@H](CC)CO', 4),
  ('CO[C@H]1/C=C/O[C@@]2(C)Oc3c(C)c(O)c4c(O)c(c(/C=N/N5CCN(C)CC5)c(O)c4c3C2=O)NC(=O)/C(C)=C\C=C\[C@H](C)[C@H](O)[C@@H](C)[C@@H](O)[C@@H](C)[C@H](OC(C)=O)[C@@H]1C', 8),
  ('COc1c(N2C[C@@H]3CCCN[C@@H]3C2)c(F)cc2c(=O)c(C(=O)O)cn(C3CC3)c12', 0.25);

Let us move to another entry and its MIC.
IN: Give MIC for the following compound: NNC(=O)c1ccncc1 [INH, isoniazid, reference compound]
OUT: 4

====

system: Mtb SORO; assay: microbe, parasite or virus in culture; format: cell-based, Mycobacterium tuberculosis; conditions: Mycobacterium tuberculosis, read-out: MIC, susceptibility pattern Mtb SORO
Readout: MIC (µg/mL)
Numeric answer only, unit µg/mL assumed.

IN: Give MIC for the following compound: [H]/N=C(/N)N[C@H]1[C@H](O)[C@@H](O)[C@H](O[C@@H]2O[C@@H](C)[C@](O)(C=O)[C@H]2O[C@@H]2O[C@@H](CO)[C@H](O)[C@@H](O)[C@@H]2NC)[C@@H](N/C(N)=N\[H])[C@@H]1O [streptomycin]
OUT: 4

IN: Give MIC for the following compound: NNC(=O)c1ccncc1 [INH, isoniazid, reference compound]
OUT: 4

IN: Give MIC for the following compound: CC(C)/N=c1\cc2n(-c3ccc(Cl)cc3)c3ccccc3nc-2cc1Nc1ccc(Cl)cc1 [clofazimine]
OUT: 0.25

IN: Give MIC for the following compound: NCC[C@H](O)C(=O)N[C@@H]1C[C@H](N)[C@@H](O[C@H]2O[C@H](CN)[C@@H](O)[C@H](O)[C@H]2O)[C@H](O)[C@H]1O[C@H]1O[C@H](CO)[C@@H](O)[C@H](N)[C@H]1O [amikacin]
OUT: 1

====

Entries and their measured MIC follow.
system: Mtb TIAS; test: microbe, parasite or virus in culture; format: cell-based, Mycobacterium tuberculosis; details: Mycobacterium tuberculosis, read-out: MIC, susceptibility pattern Mtb TIAS
Numeric answer only, unit µg/mL assumed.

As a guide, the following entries are already answered.
INSERT INTO assay_data (molecule, quantitative_result) VALUES
  ('CC[C@@H](CO)NCCN[C@@H](CC)CO [ethambutol]', 1),
  ('NCC[C@H](O)C(=O)N[C@@H]1C[C@H](N)[C@@H](O[C@H]2O[C@H](CN)[C@@H](O)[C@H](O)[C@H]2O)[C@H](O)[C@H]1O[C@H]1O[C@H](CO)[C@@H](O)[C@H](N)[C@H]1O [amikacin]', 1),
  ('COc1c(N2C[C@@H]3CCCN[C@@H]3C2)c(F)cc2c(=O)c(C(=O)O)cn(C3CC3)c12 [moxifloxacin]', 0.25),
  ('CO[C@H]1/C=C/O[C@@]2(C)Oc3c(C)c(O)c4c(O)c(c(/C=N/N5CCN(C)CC5)c(O)c4c3C2=O)NC(=O)/C(C)=C\C=C\[C@H](C)[C@H](O)[C@@H](C)[C@@H](O)[C@@H](C)[C@H](OC(C)=O)[C@@H]1C [RIF, rifampicin]', 0.125);

IN: Give MIC for the following molecule: [H]/N=C(/N)N[C@H]1[C@H](O)[C@@H](O)[C@H](O[C@@H]2O[C@@H](C)[C@](O)(C=O)[C@H]2O[C@@H]2O[C@@H](CO)[C@H](O)[C@@H](O)[C@@H]2NC)[C@@H](N/C(N)=N\[H])[C@@H]1O [streptomycin]
OUT: 4

====

system: Mtb SORO; experiment: microbe, parasite or virus in culture; type: cell-based, Mycobacterium tuberculosis; conditions: Mycobacterium tuberculosis, read-out: MIC, susceptibility pattern Mtb SORO
Readout: MIC (µg/mL)
Numeric answer only, unit µg/mL assumed.

As a guide, the following entries are already answered.
INSERT INTO assay_data (compound_structure, quantitative_result) VALUES
  ('CC[C@@H](CO)NCCN[C@@H](CC)CO', 2),
  ('COc1c(N2C[C@@H]3CCCN[C@@H]3C2)c(F)cc2c(=O)c(C(=O)O)cn(C3CC3)c12', 0.25);

Let us move to another entry and its MIC.
IN: Give MIC for the following compound: `CO[C@H]1/C=C/O[C@@]2(C)Oc3c(C)c(O)c4c(O)c(c(/C=N/N5CCN(C)CC5)c(O)c4c3C2=O)NC(=O)/C(C)=C\C=C\[C@H](C)[C@H](O)[C@@H](C)[C@@H](O)[C@@H](C)[C@H](OC(C)=O)[C@@H]1C`
OUT: 0.125

====

test system: Mtb TURZ; experiment: microbe, parasite or virus in culture; format: cell-based, Mycobacterium tuberculosis; conditions: Mycobacterium tuberculosis, read-out: MIC, susceptibility pattern Mtb TURZ
Readout: MIC (µg/mL)
Numeric answer only, unit µg/mL assumed.

As a guide, the following entries are already answered.
INSERT INTO assay_data (compound_structure, quantitative_result) VALUES
  ('NCC[C@H](O)C(=O)N[C@@H]1C[C@H](N)[C@@H](O[C@H]2O[C@H](CN)[C@@H](O)[C@H](O)[C@H]2O)[C@H](O)[C@H]1O[C@H]1O[C@H](CO)[C@@H](O)[C@H](N)[C@H]1O', 0.5),
  ('COc1c(N2C[C@@H]3CCCN[C@@H]3C2)c(F)cc2c(=O)c(C(=O)O)cn(C3CC3)c12', 0.25),
  ('CC[C@@H](CO)NCCN[C@@H](CC)CO', 1);

IN: Give MIC for the following compound: `[H]/N=C(/N)N[C@H]1[C@H](O)[C@@H](O)[C@H](O[C@@H]2O[C@@H](C)[C@](O)(C=O)[C@H]2O[C@@H]2O[C@@H](CO)[C@H](O)[C@@H](O)[C@@H]2NC)[C@@H](N/C(N)=N\[H])[C@@H]1O`
OUT: 16

====

tested on: Mtb SORO; test: microbe, parasite or virus in culture; assay type: cell-based, Mycobacterium tuberculosis; conditions: Mycobacterium tuberculosis, read-out: MIC Mtb SORO
Readout: MIC (µg/mL)
Numeric answer only, unit µg/mL assumed.

INSERT INTO results (compound_structure, readout, unit_label, quantitative_result) VALUES
  ('Cc1nc2cc(Cl)ccc2c(=O)n1/N=C/c1ccc(O)c([N+](=O)[O-])c1', 'MIC', 'µg/mL', 12.5),
  ('Cc1nc2cc(Cl)ccc2c(=O)n1Cc1ccc(Cl)c(Cl)c1', 'MIC', 'µg/mL', 100);

Let us move to another entry and its MIC.
IN: Give MIC for the following compound: `COc1ccc(Cn2c(C)nc3cc(Cl)ccc3c2=O)cc1`
OUT: 12.5

====

tested on: Mtb SORO; assay: microbe, parasite or virus in culture; type: cell-based, Mycobacterium tuberculosis; conditions: Mycobacterium tuberculosis, read-out: MIC Mtb SORO
Entries and their measured MIC follow.

As a guide, the following entries are already answered.
INSERT INTO assay_data (compound, system_tested, result) VALUES
  ('Cc1nc2cc(Cl)ccc2c(=O)n1Cc1cccc(Cl)c1', 'Mtb SORO', '> 100 µg/mL'),
  ('Cc1nc2cc(Cl)ccc2c(=O)n1Cc1ccc(F)cc1', 'Mtb SORO', '> 50 µg/mL');

IN: Give MIC for the following compound: NNC(=O)c1ccncc1 [INH, isoniazid, reference compound]
OUT: > 100 µg/mL
